Target: CYP3A4 (Homo sapiens (Human))
Sequence (P08684 whole entry): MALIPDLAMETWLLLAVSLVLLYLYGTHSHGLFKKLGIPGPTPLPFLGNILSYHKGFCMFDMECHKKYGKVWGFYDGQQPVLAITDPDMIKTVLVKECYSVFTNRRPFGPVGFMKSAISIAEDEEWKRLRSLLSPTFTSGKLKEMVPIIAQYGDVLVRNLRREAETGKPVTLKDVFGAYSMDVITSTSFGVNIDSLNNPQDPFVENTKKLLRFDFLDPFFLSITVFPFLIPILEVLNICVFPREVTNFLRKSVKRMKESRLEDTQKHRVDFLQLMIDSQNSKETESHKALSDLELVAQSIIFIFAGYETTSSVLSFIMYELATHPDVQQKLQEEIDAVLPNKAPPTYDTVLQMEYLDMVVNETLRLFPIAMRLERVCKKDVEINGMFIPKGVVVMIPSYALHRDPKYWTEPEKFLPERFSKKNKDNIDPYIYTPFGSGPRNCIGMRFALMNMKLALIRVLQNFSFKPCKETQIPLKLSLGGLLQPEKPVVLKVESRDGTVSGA
Assay: CYP3A4 inhibition study
Type: in vitro ADME
Settings: CYP3A4, 30 min preincubation
observation-type: IC50

[[record]]
test_smiles = "COCCOCCOCCNC(=O)c1cc(Nc2cc(Oc3ccc(NC(=O)Nc4cc(C(C)(C)C)cc(NS(C)(=O)=O)c4OC)c4ccccc34)ccn2)cc(OC)c1"
result = "> 15 µM"

[[record]]
test_smiles = "COc1c(NC(=O)Nc2ccc(Oc3ccnc(Nc4ccccc4)c3)c3ccccc23)cc(C(C)(C)C)cc1C(=O)NC1COC1"
result = "> 15 µM"


Please turn your attention to the following entry.
Ask: For the compound COc1cc(Nc2nccc(Oc3ccc(NC(=O)Nc4cc(C(C)(C)C)cc(NS(C)(=O)=O)c4OC)c4ccccc34)n2)cc(S(=O)(=O)C2CC2)c1 , what IC50 is on record?
Reply: > 15 µM
